details: buffer; pH 7.4; 6.0 h; 150.0 µM
Use 7 µg/mL as the dividing line for solubility kinetic, with the line itself on the Condition met side and lower values as Condition not met.

1) O=C(Nc1nnc(-c2ccco2)o1)c1ccc(Cl)cc1 : Condition met
2) O=C(C1CCN(c2nc(-c3ccc(Br)cc3)cs2)CC1)N1CCOCC1 : Condition met
3) COc1ccccc1Nc1ccnc(N2CCN(C(=O)c3ccccc3Cl)CC2)n1 : Condition not met
4) Cc1ccc(NS(=O)(=O)c2ccccc2C(=O)Nc2nc(-c3ccccc3)cs2)cc1 : Condition not met
5) Cc1cc(NS(=O)(=O)c2ccc(NCCc3ccc(Cl)c(Cl)c3)cc2)no1 : Condition met
6) COc1ccc(-c2cn[nH]c2-c2ccc(OC)cc2)cc1 : Condition not met
7) Cc1ccc(S(=O)(=O)Nc2cnccc2C(=O)Nc2nc(-c3ccco3)cs2)cc1 : Condition met
8) COC(=O)CNC(=O)c1nc(-c2ccc(F)cc2)c2ccccn12 : Condition not met

----------
settings: buffer; pH 7.4; 6.0 h; 150.0 µM
Endpoint Label: solubility kinetic

1. CCc1ccc(-n2c(=O)c3cccnc3n2CC(=O)Nc2cc(OC)ccc2OC)cc1 : < 1 µg/mL
2. COc1ccc(C2=Nc3ccc(Br)cc3C(c3ccccc3)N2CC(=O)NN)cc1 (stereo unspecified) : > 69 µg/mL
3. COc1cc(Nc2nc(-c3ccncc3)nc3ccccc23)ccc1F : < 1 µg/mL
4. c1ccc2c(Nc3ccn[nH]3)nc(-c3ccncc3)nc2c1 : < 1 µg/mL
5. COc1cc(NS(=O)(=O)c2ccc(C)cc2)cc(C(=O)Nc2nc(-c3ccccc3)cs2)c1 : < 1 µg/mL
6. CC1=Nc2cc(C(=O)NCc3ccccc3Cl)ccc2Sc2c(C)ccc(C)c21 : < 1 µg/mL
7. NC(=O)C1CCN(c2nc(-c3ccccc3Br)cs2)CC1 : > 54 µg/mL
8. O=C(N/N=C/c1ccc(Sc2ccccn2)o1)c1ccncc1 : > 48 µg/mL
9. CN(C(=O)OC(C)(C)C)[C@@H](Cc1ccc(O[S+](=O)([O-])c2cccc3cnccc23)cc1)C(=O)N1CCN(C(=O)OCc2ccccc2)CC1 : < 1 µg/mL
10. CSc1nn(Cc2cccc(C)c2)c(N)c1S(=O)(=O)c1ccccc1 : < 1 µg/mL
11. O=C(Nc1ncc(-c2ccccc2)s1)c1ccc(-c2cccc([N+](=O)[O-])c2)o1 : < 1 µg/mL

----------
conditions: buffer; pH 7.4; 6.0 h; 150.0 µM
Endpoint Label: solubility kinetic

1) CCCc1oc2ccc(NS(=O)(=O)c3ccc(OC)cc3)cc2c1C(=O)OCC : < 1 µg/mL
2) CCOc1ccc(CCNC(=O)c2cc3sccc3n2CCN2CCN(C)CC2)cc1OCC : > 72 µg/mL
3) COc1ccc(-c2ccc3nc(-c4cc(C)cc(C)c4)oc3c2)c(OC)c1OC : < 1 µg/mL
4) Cc1cnc(-c2ccccc2C(F)F)nc1NCc1ccc(-n2ccnn2)cc1 : < 1 µg/mL
5) O=C(Nc1cccc(S(=O)(=O)C(F)(F)F)c1)c1ccccc1NC(=O)c1ccccc1OCC(F)(F)F : < 1 µg/mL
6) Cc1ccc(C(=O)Nc2cccc(C(F)(F)F)c2)cc1Nc1nc(-c2cccnc2)nc2c1cnn2C : < 1 µg/mL
7) Cc1ccccc1C(=O)N1CCc2cc(-c3nc(NC(=O)Cc4ccc5c(c4)OCCO5)sc3C)ccc21 : < 1 µg/mL
8) O=C(Cc1ccc(Cl)c(Cl)c1)Nc1ccc(S(=O)(=O)Nc2cccc(O)c2)cc1 : < 1 µg/mL
9) CCN(CC)CCOc1ccc(Cc2ccccc2)cc1 : 8.35 µg/mL
10) Cc1ccccc1C(C(=O)NC1CCCC1)N(C(=O)Cn1cnc2ccccc21)c1cccc(F)c1 (stereo not given) : 12.2 µg/mL
11) CN1C(=O)c2ccccc2[S@](=O)c2ccc(C(=O)NCc3cccnc3)cc21 : 1.35 µg/mL
12) CN(C)CCN1C(=O)c2cccc3cc(N)cc(c23)C1=O : > 42 µg/mL
13) Cc1noc(C)c1S(=O)(=O)Nc1cnccc1C(=O)Nc1nc(-c2ccccc2)cs1 : > 66 µg/mL
14) COc1ccc(-c2nc3ccccc3s2)cc1NC(=O)c1ccc(F)cc1 : < 1 µg/mL
15) CN(C)c1ccccc1-c1csc(N2CCC(C(N)=O)CC2)n1 : > 49 µg/mL
16) C[C@H]1CCC[C@H](O)CCC/C=C/c2cc(O)cc(O)c2C(=O)O1 : 17.1 µg/mL
17) Cc1sc(NC(=O)Cc2ccc3c(c2)OCO3)nc1-c1ccc2c(c1)CCN2C(=O)C1CCCCC1 : < 1 µg/mL
18) CCc1ccc(C2Sc3ccccc3NC3=C2C(=O)c2ccccc23)cc1 (stereo not given) : < 1 µg/mL
19) CC1=C(C(=O)Nc2nccs2)C(c2ccccc2Br)N=C(Nc2nc3ccccc3o2)N1 (stereo not given) : < 1 µg/mL
20) Cc1cc(SCc2sc(-c3ccc(C(F)(F)F)c(F)c3)nc2C)ccc1OCC(=O)O : > 70 µg/mL
21) Cc1cccc(CNc2ccc(S(=O)(=O)Nc3nccs3)cc2)c1O : > 55 µg/mL
22) Cc1ccc(NC2=C(c3ccc(C(F)(F)F)cc3)C(=O)c3ccccc32)cc1F : < 1 µg/mL
23) Cc1cc(-c2nnc3n2CCCCC3)c(C)n1-c1ccc(Cl)cc1 : 25.9 µg/mL
24) CCN1C(=O)c2ccccc2[S@](=O)c2ccc(C(=O)NCc3ccc(F)cc3)cc21 : 18.1 µg/mL
25) CC(=O)c1c(C)[nH]c(C(=O)Nc2cccc([S+](=O)([O-])N3CCC(F)(F)CC3)c2)c1C : 8.98 µg/mL

----------
Quick reference: solubility kinetic of the listed items.
details: buffer; pH 7.4; 6.0 h; 150.0 µM
Endpoint Label: solubility kinetic

1) Cc1ccccc1-c1nc(NCc2ccc(-c3cccnc3)cc2)c2ccccc2n1 : < 1 µg/mL
2) COC(=O)CNC(=O)c1nc(-c2ccc([S+](C)(=O)[O-])cc2)c2cnccn12 : > 57 µg/mL
3) O=S(=O)(Nc1nccs1)c1ccc(NCc2ccccc2O)cc1 : > 53 µg/mL
4) O=C(O)CCNc1cc(N2CCc3ccccc3CC2)nc(-c2ccccn2)n1 : > 58 µg/mL
5) O=[N+]([O-])c1ccc(CNc2ccc([S+](=O)([O-])Nc3nccs3)cc2)c(O)c1 : > 60 µg/mL
6) CC(C)NC(=O)N1C[C@@H]2C[C@H](C1)c1ccc(-c3cccc(C(F)(F)F)c3)c(=O)n1C2 : > 93 µg/mL
7) O=C(c1ccccc1)N1CCC(C(=O)N2CCC(N3Cc4ccccc4C3=O)CC2)CC1 : > 43 µg/mL
8) CCCCCn1c(=O)[nH]c2cc(C(=O)NCCCN3CCC(C)CC3)ccc2c1=O : > 61 µg/mL
9) O=S(=O)(Nc1cnc2ccccc2c1)c1ccc(NCc2ccc(Br)cc2O)cc1 : < 1 µg/mL
10) COc1ccc(-n2nc(C3CCN(C(=O)C4CC4)CC3)[nH]c2=O)cc1 : > 51 µg/mL
11) Cc1ccc(S(=O)(=O)Nc2cnccc2C(=O)Nc2nc(-c3cccc(C)c3)cs2)cc1 : 15.4 µg/mL
12) CCCc1ccc(-c2csc(NC(=O)c3ccncc3NS(=O)(=O)c3ccc(C)cc3)n2)cc1 : < 1 µg/mL
13) NCC(=O)Nc1cccc(-c2nn3c(=O)cc(N4CCNCC4)nc3s2)c1 : 43.2 µg/mL
14) Cc1ccc(-c2[nH]n3c(=O)c4c(nc3c2C)CCCC4)cc1 : 1.03 µg/mL
15) Fc1cc(Nc2nc(-c3ccncc3)nc3ccccc23)ccc1-c1cn[nH]c1 : < 1 µg/mL

----------
conditions: buffer; pH 7.4; 6.0 h; 150.0 µM
Endpoint Label: solubility kinetic

1. CC(C)(C)C1CCc2c(sc(NC(=O)c3ccncc3)c2C(N)=O)C1 (stereo not given) : < 1 µg/mL
2. Clc1ccccc1-c1nnc2sc(-c3ccc4c(c3)OCO4)nn12 : < 1 µg/mL
3. CC1=C(C(=O)Nc2nnc(-c3ccccc3)s2)C(c2[nH]ncc2Cl)N=C(Nc2nc3ccccc3o2)N1 (stereo not given) : < 1 µg/mL
4. COc1cc(-c2c(C#N)c(N)nc3c2c(C)nn3-c2ccc(F)cc2)ccc1O : < 1 µg/mL
5. Cc1ccc2oc3c(c(=O)c2c1)C(c1cccc(O)c1)N(CCCN1CCOCC1)C3=O (stereo not given) : > 64 µg/mL
6. Cc1cccc(C)c1Nc1c(-c2ccccn2)nc2ccc(Cl)cn12 : < 1 µg/mL
7. Cc1ccnc(NC(=S)N2CCN(c3ccc(C(F)(F)F)cc3[N+](=O)[O-])CC2)c1 : 4.11 µg/mL
8. Cc1ccc(S(=O)(=O)n2cc(C(=O)Nc3ccc(-c4ccccc4)cc3)c3ccccc32)cc1 : < 1 µg/mL
9. CN1CCN(c2ccc(Nc3nn4c(=O)c5ccccc5nc4s3)cc2)CC1 : > 58 µg/mL
10. c1ccc(-c2nnc3n2NC(c2ccc4c(c2)OCO4)S3)cc1 (stereo not given) : 1.56 µg/mL
11. Nc1ncnc2c1ncn2[C@H]1O[C@@H](CO)[C@@H](O)[C@H]1N : > 39 µg/mL
12. O=S(=O)(Nc1cnc2ccccc2c1)c1ccc(NCc2cccc(Cl)c2O)cc1 : 1.84 µg/mL
13. Cc1ccc2nc(-c3ccccn3)c(Nc3ccccc3C)n2c1 : < 1 µg/mL
14. O=C1CCCC2=C1C(c1[nH]ncc1Cl)N=C(Nc1nc3cc([S+](=O)([O-])N4CCCC4)ccc3o1)N2 (stereo not given) : 36.2 µg/mL
15. COc1cccc(-c2nc(-c3c(C)noc3C)cc3[nH]c(C)cc23)c1OC : 20.4 µg/mL
16. CCCC1=Nc2cc(C(=O)NC3CCCC3)ccc2Sc2ccc(C)cc21 : < 1 µg/mL
17. Cc1ncc2c(c1CNC(=O)Cn1cnc3ccccc3c1=O)CCNC2 : 28.1 µg/mL
18. O=C(Nc1nc(-c2ccccc2)cs1)c1ccncc1NS(=O)(=O)c1ccc(F)cc1F : > 70 µg/mL
19. Oc1ccc(CN2CC(CNc3ccccc3)C3(C2)CN(c2ccccc2)C3)cc1 (stereo not given) : 1.79 µg/mL
20. COc1ccc(NC(=O)c2[nH]c(C)c(C(C)=O)c2C)cc1S(=O)(=O)Nc1ccc(C#N)cc1 : 4.06 µg/mL
21. CCCCN(CC)CCNC(=O)c1cc2c(-c3ccc(Cl)cc3)nn(C)c2s1 : > 62 µg/mL
22. CCCc1nnc(NC(=O)c2nc(S(=O)(=O)Cc3ccc(C)cc3)ncc2Cl)s1 : > 67 µg/mL
23. Cc1ccnc(C)c1C(=O)Nc1cccc([S+](=O)([O-])N(C)C)c1 : > 49 µg/mL
24. Cc1ccc(NS(=O)(=O)c2cccc(C(=O)O)c2)cc1S(=O)(=O)N1CCOCC1 : > 65 µg/mL
25. O=C(c1nc(-c2cccnc2)c2ccccn12)N1CCN(c2ncccn2)CC1 : 9.57 µg/mL
26. NC(=O)C1CCN(c2nc(-c3ccc(Cl)cc3)cs2)CC1 : 1.52 µg/mL
27. COc1cccc(NS(=O)(=O)c2ccc(C)cc2)c1C(=O)Nc1nc(-c2ccccc2)cs1 : < 1 µg/mL
28. Cc1nc(NCc2ccco2)nc2c1C(=O)CC(C)C2 (stereo not given) : > 40 µg/mL
29. CCN1CCN(c2ccc3cc(S(=O)(=O)N4CCOCC4)ccc3n2)CC1 : > 58 µg/mL
30. CC(=O)c1c(C)[nH]c(C(=O)Nc2cccc(S(=O)(=O)Nc3cccc(C#N)c3)c2)c1C : 21 µg/mL
31. CCCNc1oc(-c2cccc3ccccc23)nc1C#N : < 1 µg/mL
32. O=C(Nc1ccccc1)C1CCN(c2ncc(-c3ccc4c(c3)OCCCO4)s2)CC1 : < 1 µg/mL
33. Cc1ccc2oc3c(c(=O)c2c1)C(c1ccc(O)cc1)N(CCCN(C)C)C3=O (stereo not given) : > 58 µg/mL
34. COc1cccc(S(=O)(=O)Nc2cnccc2C(=O)Nc2nc(-c3ccccc3)cs2)c1 : 53.9 µg/mL
35. Cn1cc(Br)c(C2N=C(Nc3nc4ccccc4o3)NC3=C2C(=O)CCC3)n1 (stereo not given) : 24.7 µg/mL
36. CNc1oc(-c2cccc(-c3ccccc3)c2)nc1C#N : < 1 µg/mL
37. Fc1ccc(Nc2nc(Nc3ccncc3)nc3ccccc23)cc1F : 2.19 µg/mL
38. COc1cccc(CNc2ccc(S(=O)(=O)Nc3cccs3)cc2)c1O : 11.6 µg/mL
39. Cn1nnnc1Sc1ncnc2sccc12 : > 37 µg/mL
40. O=C(Nc1nnc(C2CCCCC2)s1)c1ccc(Br)s1 : < 1 µg/mL
